# testedSystem: Intestinal-type alkaline phosphatase (Homo sapiens)
# assaySummary: human IAP activators, primary screen, biochemical, luminescence, uHTS (AID 2524)
# statedConditions: purified human IAP, CDP-Star luminescence, 30 min; at 10 µM; active compounds read high; 1 = vehicle-only enzyme, 0 = enzyme-free background
Hit rate of the full screen: of about 330,000 compounds, about 540 (0.16%) were called active. What follows is part of a selection rich in actives, with near analogues and random picks from the rest.
experimentalEndpoint: activation factor
Answers are plain numbers.

OC(COc1ccc(CN2CCSCC2)cc1)CN1CCCCC1 (stereo unspecified) | 1.12
Cc1ccc(Cl)c(NC(=O)CN(C)CC(=O)Nc2ccc(F)c(F)c2F)c1Cl | 1.68
O=C(COc1ccc2c(C(F)(F)F)cc(=O)oc2c1)Nc1ccc2c(c1)OCCO2 | 1.02

Quick batch: activation factor for everything below.
1. CC(C)=CCN1CCN(Cc2cc3ccccc3[nH]2)CC1CCO (stereo unspecified)
2. Cc1cccc(NC(=O)CSc2nnc(CCCCCNC(=O)OC(C)(C)C)o2)c1C
3. CC(=O)Nc1ccc(NC(=O)COc2ccc(-c3ccccc3)cc2)cc1
4. Cn1nnnc1SCC(=O)Nc1ccccc1C(=O)NC1CC1
5. CCOC(=O)c1sc(NC(=O)CSc2nc(C)cc(C(F)(F)F)n2)c(C#N)c1C
6. CN(C)C(=O)c1cccn(Cc2cccc(C(F)(F)F)c2)c1=O
7. CN1CCN(Cc2c(C(=O)N3CCc4ccccc4C3)nc3ccc(Cl)cn23)CC1

[1.13, 0.854, 0.914, 0.94, 0.888, 1.24, 1.33]

Item: CN1CCC(N(C)S(=O)(=O)c2ccc(NC(=O)c3cccc(C#N)c3)cc2)CC1 | activation factor: 0.888
